These measurements were taken from PubChem BioAssay (NCI).

Hi there, I'd appreciate the recorded TGI for every entry that follows.
Test system: XF 498 CNS
method: NCI tumour cell line growth inhibition, 48 h
Answers are plain numbers, in µM.

>>> df
                                   compound  result_type  recorded_number
0  CC(C)C(Sc1nc(-c2ccccc2)c(-c2ccccc2)[nH]1)C(=O)N/N=C/c1ccc([N+](=O)[O-])cc1 (centres undefined)          TGI               41
1  COc1ccc2c(c1)O[C@H]1c3ccc(O)cc3OC[C@@H]21          TGI             46.4
2  CCOc1ccc(N=Nc2ccc3oc(=O)c(/C(C)=N\NC(=O)CC(=O)Nc4ccc(Cl)cc4)cc3c2)cc1          TGI             4.31

Next:
Query: Give reported TGI value for COC(=O)C1=COC2OC3/C(=C\c4ccc(O)c(OC)c4)C(=O)OC34C=CC1C24 (centres undefined)
Reply: 18.4

* * *

System: HCT-15 colon
method: NCI tumour cell line growth inhibition, 48 h
Hi there, I'd appreciate the recorded TGI for every entry that follows.

molecule	result
COc1ccc(CC2NCCc3cc(OC)c(OC)cc32)cc1 (centres undefined)	> 100 µM
O=C(Nc1ccc(Cl)cc1)c1ccc([N+](=O)[O-])o1	3.43 µM

List TGI for every entry below, keeping the order given.
1. COc1cc(/C=C/c2sc3ccccc3[n+]2C)ccc1N(C)C
2. COc1cc(-c2c3c([nH]c(=O)c2C#N)-c2cc([N+](=O)[O-])ccc2CCC3)cc(OC)c1OC
3. COc1ccc(N=Nc2c(C)c(C#N)c(=S)n(C3OC(COC(C)=O)C(OC(C)=O)C(OC(C)=O)C3OC(C)=O)c2-c2ccccc2)cc1 (centres undefined)
4. O=Cc1[nH]c(=O)[nH]c(=O)c1CCl

Reply:
1: > 100 µM; 2: > 100 µM; 3: 77.2 µM; 4: > 100 µM

List TGI for every entry below, keeping the order given.
1. COC1=CC(=O)c2c(O)ccc(O)c2C1=O
2. O=C1/C(=C/c2ccc([N+](=O)[O-])o2)Oc2ccccc21
3. CC1(C)O[C@H]2[C@@H]3N=C(c4ccccc4)O[C@@H]3C=C[C@H]2O1
4. COc1cc(Nc2ncc3c(C)nc(-c4cccc(Oc5ccccc5)c4)n3n2)cc(OC)c1OC

Reply:
1. 6.91 µM
2. 1.43 µM
3. > 100 µM
4. > 25 µM

* * *

System: HCC-2998 colon
method: NCI tumour cell line growth inhibition, 48 h
Hi there, I'd appreciate the recorded TGI for every entry that follows.
Give bare numbers, in µM.

List TGI for every entry below, keeping the order given.
1. N#Cc1c(-c2ccc(Cl)cc2)c(-c2ccc(Cl)cc2)nn(CCOC(=O)CCC(=O)O)c1=O
2. Cc1cc(NCCCCNc2ccnc3cc(Cl)ccc23)nc(Nc2ccc(C(=O)N3CCCC3)cc2)n1
3. CN(C)c1ccc(/C=C/c2ccnc3ccccc23)cc1N
4. COc1ccc2c(c1)O[C@H]1c3ccc(O)cc3OC[C@@H]21
5. CC(C)=CC(O)C/C(C)=C/CC/C(C)=C/CCC1(C)C(CCCO)/C(=C(/C)C=O)CCC1(C)O (centres undefined)

Reply:
[16.1, 8.36, 25.3, 53, 68.2]
